Where do the numbers come from? From paper PMC12040169.

- method_summary: in vitro
- protocol_conditions: human, hela cells, % viability
endpoint_name: viability at 28.5 h, 10 µM (%)
Kindly answer with a numeric value in %, unit omitted.

Item O=C(CSc1nc2ccccc2nc1N1CCCC1)N1CCN(c2ccccc2)CC1 has what recorded viability at 28.5 h, 10 µM?
86.5

Please give the measured viability at 28.5 h, 10 µM for this molecule: Cc1cc(NC(=O)CSc2nnc(-c3ccccc3)o2)no1
96.2

Value lookup for viability at 28.5 h, 10 µM; key = Cc1cc(CNC(=O)c2ccc3c(c2)OCO3)c2ccccc2n1
72.1

I'd like to know its viability at 28.5 h, 10 µM. The molecule in question is O=[N+]([O-])c1ccc(N2CCN(S(=O)(=O)Cc3ccccc3)CC2)cc1N1CCN(Cc2ccccc2)CC1
101

Recorded viability at 28.5 h, 10 µM for COc1ccccc1NC(=S)NCCc1ccc(S(N)(=O)=O)cc1 , please?
95.1

Given the molecule CCC1CCCCN1C(=O)c1cccs1 (centres unmarked) , what is its reported viability at 28.5 h, 10 µM?
104

Need viability at 28.5 h, 10 µM of COc1cccc2sc(Nc3nc4ccc(NC(C)=O)cc4s3)nc12 , thanks.
94.9

viability at 28.5 h, 10 µM for O=C(Cn1nnc(-c2ccc(CN3CCOCC3)cc2)n1)Nc1ccc(Br)cc1 ?
94.1

I have this molecule here, O=C(Cc1ccccc1)Nc1nnc(C2=COCCO2)o1 , and I need its recorded viability at 28.5 h, 10 µM.
92.2

What measured viability at 28.5 h, 10 µM goes with N#Cc1ccc(OCCO)cc1 ?
107

Entry COc1ncc(-c2cnc3[nH]c(=O)n(Cc4ccc(S(C)(=O)=O)cc4)c3n2)cn1 : reported viability at 28.5 h, 10 µM = ?
103

Consider the molecule shown here: O=C(c1ccccc1)N1CCC(c2nnc(-c3ccsc3)o2)CC1 What is its recorded viability at 28.5 h, 10 µM?
88.5

What value of measured viability at 28.5 h, 10 µM is listed for Cc1ccc(C)c(C(=O)CCC(=O)Nc2cccnc2)c1 ?
95.8

Could you tell me which viability at 28.5 h, 10 µM is on file for O=C1NC2(CCOCC2)C(=O)N1Cc1ncc(-c2cccs2)o1 ?
92

Look at this molecule and give its reported viability at 28.5 h, 10 µM. O=C(CCSc1ccccc1)Nc1ccccc1C(=O)N1CCCCC1
87.3

For Nc1cccc(-c2nc(-c3cncnc3)cnc2N)c1 , what is its reported viability at 28.5 h, 10 µM?
102

Would you kindly share the measured viability at 28.5 h, 10 µM for Cc1ncccc1COC(=O)N1Cc2ccccc2C1 ?
91.1

Please look up its viability at 28.5 h, 10 µM: COc1cc(CNC2CCCCC2)cc(I)c1OCC(N)=O [CBK269158C]
117

Given O=C(O)CSc1nnc(C2COc3ccccc3O2)n1-c1ccccc1 (centres unmarked) , state its recorded viability at 28.5 h, 10 µM.
104

Returns the measured viability at 28.5 h, 10 µM for the input molecule. Input: O=S(=O)(NCc1nc(-c2ccccc2)no1)c1ccc(F)cc1
93.3

I am curious: what viability at 28.5 h, 10 µM value has been reported for O=C(O)CCCCCN1C(=O)C2CC=CCC2C1=O (centres unmarked) ?
82.5

For the molecule O=C(O)c1cccc(S(=O)(=O)N2CCC(C(=O)O)CC2)c1 , what viability at 28.5 h, 10 µM is on record?
93.6

Sample Cc1cc(Cc2ccc(Cl)cc2)cc(C2CCN(C(=O)Cc3csc(C)n3)CC2)n1 — what was its viability at 28.5 h, 10 µM?
88.5

Which viability at 28.5 h, 10 µM is listed for c1ccc(Oc2ccccc2-c2cc(NCCc3c[nH]cn3)ncn2)cc1 ?
82.9

Consider the molecule shown here: C=CCn1c(Cc2csc(NC(=O)c3cccc(Cl)c3)n2)n[nH]c1=S What is its recorded viability at 28.5 h, 10 µM?
98.3

Please give the measured viability at 28.5 h, 10 µM for this molecule: CCCc1nn(CC(=O)OC)c(=O)c2cc3ccsc3n12
98.7

====

- method_summary: in vitro
- protocol_conditions: human, hela cells, % viability
For each record, write down the corresponding viability at 28.5 h, 10 µM.
Give the number; % is assumed, so skip it.

What measured viability at 28.5 h, 10 µM goes with CC1CCCCC1NC(=O)NC(=O)Cn1nnc2ccccc2c1=O (stereo not drawn) [CBK306046] ?
90.2

Any idea what its viability at 28.5 h, 10 µM is? The compound is O=[N+]([O-])c1cc(S(=O)(=O)n2ccc3ccccc32)ccc1N1CCNCC1 [CBK024593C]
91.2

Entry O=C(NCCn1c(-c2ccncc2)nc2ccccc21)c1ccc(F)c(F)c1 [CBK288577] has what viability at 28.5 h, 10 µM?
88.9

# get_value(readout='viability at 28.5 h, 10 µM', item= Cc1cccc(C(=O)N2CCN(Cc3cc(=O)n4ccsc4n3)CC2)c1 [CBK305037] )
91

Request the reported viability at 28.5 h, 10 µM associated with Clc1ccc(Cl)c(-c2nc3ccccc3o2)n1 [CBK095353]
91.6

Item under review: CC(C)Cn1c(=O)[nH]c2ncc(-c3cncnc3)nc21 [CBK064177] . Reported viability at 28.5 h, 10 µM?
90.1

====

- method_summary: in vitro
- protocol_conditions: human, hela cells, % viability
endpoint_name: viability at 28.5 h, 10 µM (%)
Enter your answer as a number in %; do not include the unit.

So what's the measured viability at 28.5 h, 10 µM for this one? CC(NC(=O)N(Cc1ccc(CN)cc1)Cc1cnc(-c2ccccc2)[nH]1)c1cccc2ccccc12 (stereo not drawn) [CBK046149C]
97.1

What value of viability at 28.5 h, 10 µM has been recorded for this entry: CS(=O)(=O)Nc1cc(-c2noc([C@@H]3CCCN3C3CCC3)n2)ccn1
112

viability at 28.5 h, 10 µM for C=CCNC(=O)Cn1c(-c2ccc(OC)cc2)cc2cccnc21 ?
83.2

Fill in the blank: the reported viability at 28.5 h, 10 µM of CN(Cc1nc2ccccc2c(=O)[nH]1)Cc1cc2c(cc1Br)OCCO2 is ____.
108

Query (molecule): COc1ccc(C(CCN)c2ccccc2OC)cc1 (stereo not drawn) ; field requested: viability at 28.5 h, 10 µM
103

Requested field: viability at 28.5 h, 10 µM. Item: CCNc1cc(-c2ccco2)ncn1
108

Returns the measured viability at 28.5 h, 10 µM for the input molecule. Input: O=C(O)c1c[nH]cn1 [CBK260978G]
97

Fill in the blank: the reported viability at 28.5 h, 10 µM of CC(C)C(NS(=O)(=O)c1ccc(Oc2ccccc2Cl)cc1)C(=O)O (stereo not drawn) is ____.
100

Which viability at 28.5 h, 10 µM reading was recorded for the molecule N#CCCn1cc(C(=O)N2CCCCC2)c(-c2ccccc2)n1 ?
100

For N/C(=N\OC(=O)c1ccccc1CCc1ccccc1)c1cccnc1 , what is its reported viability at 28.5 h, 10 µM?
91.5

Item Cc1ccc(S(=O)(=O)N2CCOCC2)cc1S(=O)(=O)N1CCOCC1 has what recorded viability at 28.5 h, 10 µM?
90.8

Recorded viability at 28.5 h, 10 µM for CN(C)CCN(C)c1cc(-c2cccc(Br)c2)nc2ccnn12 , please?
106

====

- method_summary: in vitro
- protocol_conditions: human, hela cells, % viability
Lab note - cut at 90% for viability at 28.5 h, 10 µM: Met if strictly below, Not met if not.

Answer whether the molecule COC(=O)[C@@H](C)NC(=O)[C@H]1CN(C(=O)c2cccnc2)CCN1C(=O)NC1CCCCC1 has viability at 28.5 h, 10 µM strictly less than 90%
Met

Given the entry CC(C)Sc1nnc(N2C(N)=C(C#N)C(c3cccs3)C3=C2CCCC3=O)s1 (centres unmarked) , would its reported viability at 28.5 h, 10 µM be below 90%?
Met

Lab log: compare recorded viability at 28.5 h, 10 µM with 90%; is it strictly lower for O=c1[nH]c(=O)n([C@H]2C[C@H](O)[C@@H](CO)O2)cc1I ?
Not met

Determine if OCC(O)CN1CCCC1 (centres unmarked) shows viability at 28.5 h, 10 µM strictly lower than 90%.
Not met

Confirm or reject: viability at 28.5 h, 10 µM of COc1ccc(NS(=O)(=O)c2ccc3c(c2)oc(=O)c2cc(S(=O)(=O)Nc4ccc(OC)cc4)ccc23)cc1 lies strictly below 90%
Not met

====

- method_summary: in vitro
- protocol_conditions: human, hela cells, % viability
endpoint_name: viability at 28.5 h, 10 µM (%)
Value expressed in %; do not type the unit.

Return reported viability at 28.5 h, 10 µM; argument: O=C(c1cncnc1)N1CC[C@H](c2nc3cc(F)ccc3[nH]2)C1
96.8

Fill blank: measured viability at 28.5 h, 10 µM of the molecule COc1ccccc1-c1nnc(SCC(=O)N2CCN(c3ccccc3)CC2)[nH]1 is ____.
95.6

# viability at 28.5 h, 10 µM lookup, item Cc1ccc(N2CCCN(C(=O)COc3ccccc3F)CC2)nn1
99.4

// query viability at 28.5 h, 10 µM value for entry Cc1cccc(OCCn2cncc2-c2cnn(C)c2)c1C
99.5

For CC(C)(C)N1C(=O)c2ccc(C(=O)Nc3ccccc3C(=O)O)cc2C1=O , what is its reported viability at 28.5 h, 10 µM?
112
